// boundary case: intrinsic clearance, human liver microsomes equal to 30 mL/min/kg maps to NO; strictly smaller maps to YES

> print(dat)
                                    molecule  group
 1  Cc1c(C(=O)NCCc2cc3nc(-c4ccco4)ccn3n2)cnn1C    YES
 2  O=C(C1CC1c1ccccc1F)N1CCC(n2c(=O)[nH]c3ccccc32)CC1 (stereo unspecified)     NO
 3  c1cncc(-c2nnc3n2[C@H]2CN(Cc4cccs4)C[C@H]2CC3)c1    YES
 4   NS(=O)(=O)N1CCN(Cc2c(F)cccc2N2CCCC2)CC1    YES
 5             Cc1ccc(C(=O)NCC#Cc2ccccc2)cn1    YES
 6      Cc1ccc(C(=O)C(=O)Nc2c(C)nn(C)c2C)cc1    YES
 7  COc1cc2nn(CCC(C)(C)O)cc2cc1NC(=O)c1ccn(C(F)F)n1    YES
 8               CC(C)CCNC(=O)c1ccc2ccccc2n1     NO
 9      Cc1noc(-c2ccc(NC(=O)Cc3ccccc3)cc2)n1    YES
10  CS(=O)(=O)N(CC(=O)Nc1ccccc1C(=O)NCc1ccco1)c1ccc(F)cc1     NO
11               CCN1CCC(Nc2ncnc3c2cnn3C)CC1     NO

Source listed as the Biogen ADME set (Fang et al. 2023).
